- tgt: Cholecystokinin receptor type A (Rattus norvegicus)
- procedure_details: Inhibition of [125I]Cholecystokinin-8 binding to Cholecystokinin type A receptor of rat pancreatic membranes
- Type: cell membranes, Membrane
We begin with a simple list: items and their reported pIC50.
Note on units: pIC50 is unitless, being -log10 of a concentration expressed in mol/L.

Cc1cccc2c1N(CC(=O)N1CC3CCC(CC3)C1)C(=O)C(NC(=O)Nc1cccc(-c3nn[nH]n3)c1)N=C2c1ccccc1F (stereo in doubt; (-)-11) = 6.17

Q: // fetch pIC50; item: Cc1cccc2c1N(CC(=O)N1CC3CCC(CC3)C1)C(=O)C(NC(=O)Nc1cccc(-c3nn[nH]n3)c1)N=C2c1ccccc1F (single isomer, unassigned; (+)) ; system: Cholecystokinin receptor type A (Rattus norvegicus)
Ans: 8.04

----------
We begin with a simple list: items and their reported IC50.
- tgt: Cholecystokinin receptor type A (Rattus norvegicus)
- procedure_details: Inhibition of [125I]Cholecystokinin-8 (125I-CCK-8) binding to Cholecystokinin type A receptor of rat pancreatic membranes
- Format: cell membranes, Membrane
# include the unit after the value

A selection of reference data follows.
CC(=O)c1cccc(NC(=O)NC2N=C(c3ccccc3F)c3cccc(C)c3N(CC(=O)N3CC4CCC(CC4)C3)C2=O)c1 (centres undefined) = 13 nM
Cc1cccc2c1N(CC(=O)N1CC3CCC(CC3)C1)C(=O)C(NC(=O)Nc1cccc(Br)c1)N=C2c1ccccc1F (centres undefined) = 5.1 nM
Cc1cccc(NC(=O)NC2N=C(c3ccccc3F)c3ccccc3N(CC(=O)N3CC4CCC(CC4)C3)C2=O)c1 (centres undefined) = 62 nM

Pending compound:
Q: Please list IC50 recorded for the compound Cc1cccc(NC(=O)NC2N=C(c3ccccc3F)c3cccc(C)c3N(CC(=O)N3CC4CCC(CC4)C3)C2=O)c1 (centres undefined)
Ans: 17 nM

----------
- procedure_details: Selectivity for cholecystokinin A and B receptors
We begin with a simple list: items and their reported Selectivity.
Just the number, please, no unit after it.

A selection of reference data follows.
Cc1cccc2c1N(CC(=O)N1CC3CCC(CC3)C1)C(=O)C(NC(=O)Nc1cccc(Br)c1)N=C2c1ccccc1F (stereo unspecified) = 2.8
Cc1cccc(NC(=O)NC2N=C(c3ccccc3F)c3cccc(C)c3N(CC(=O)N3CC4CCC(CC4)C3)C2=O)c1 (stereo unspecified) = 36
Cc1cccc2c1N(CC(=O)N1CC3CCC(CC3)C1)C(=O)C(NC(=O)Nc1cccc(C(=O)O)c1)N=C2c1ccccc1F (stereo unspecified) = 170
CSc1cccc(NC(=O)NC2N=C(c3ccccc3F)c3cccc(C)c3N(CC(=O)N3CC4CCC(CC4)C3)C2=O)c1 (stereo unspecified) = 57
Cc1cccc2c1N(CC(=O)N1CC3CCC(CC3)C1)C(=O)C(NC(=O)Nc1cccc(Cl)c1)N=C2c1ccccc1F (stereo unspecified) = 3.7
Cc1cccc(NC(=O)NC2N=C(c3ccccc3F)c3ccccc3N(CC(=O)N3CC4CCC(CC4)C3)C2=O)c1 (stereo unspecified) = 710
Cc1cccc2c1N(CC(=O)N1CC3CCC(CC3)C1)C(=O)C(NC(=O)Nc1cccc(-c3nn[nH]n3)c1)N=C2c1ccccc1F (stereo in doubt; 11) = 21
COc1cccc(NC(=O)NC2N=C(c3ccccc3F)c3cccc(C)c3N(CC(=O)N3CC4CCC(CC4)C3)C2=O)c1 (stereo unspecified) = 7.3

Q: Please list Selectivity recorded for the compound Cc1cccc2c1N(CC(=O)N1CC3CCC(CC3)C1)C(=O)C(NC(=O)Nc1cccc(-c3nn[nH]n3)c1)N=C2c1ccccc1F (single isomer, unassigned; (+))
Ans: 24

Q: Please list Selectivity recorded for the compound Cc1cccc2c1N(CC(=O)N1CC3CCC(CC3)C1)C(=O)C(NC(=O)Nc1cccc(-c3nn[nH]n3)c1)N=C2c1ccccc1F (stereo in doubt; (-)-11)
Ans: 110

Q: Please list Selectivity recorded for the compound CC(=O)c1cccc(NC(=O)NC2N=C(c3ccccc3F)c3cccc(C)c3N(CC(=O)N3CC4CCC(CC4)C3)C2=O)c1 (stereo unspecified)
Ans: 15

----------
We begin with a simple list: items and their reported pIC50.
- tgt: Cholecystokinin receptor type A (Rattus norvegicus, UniProt P30551)
- Sequence (P30551 whole entry): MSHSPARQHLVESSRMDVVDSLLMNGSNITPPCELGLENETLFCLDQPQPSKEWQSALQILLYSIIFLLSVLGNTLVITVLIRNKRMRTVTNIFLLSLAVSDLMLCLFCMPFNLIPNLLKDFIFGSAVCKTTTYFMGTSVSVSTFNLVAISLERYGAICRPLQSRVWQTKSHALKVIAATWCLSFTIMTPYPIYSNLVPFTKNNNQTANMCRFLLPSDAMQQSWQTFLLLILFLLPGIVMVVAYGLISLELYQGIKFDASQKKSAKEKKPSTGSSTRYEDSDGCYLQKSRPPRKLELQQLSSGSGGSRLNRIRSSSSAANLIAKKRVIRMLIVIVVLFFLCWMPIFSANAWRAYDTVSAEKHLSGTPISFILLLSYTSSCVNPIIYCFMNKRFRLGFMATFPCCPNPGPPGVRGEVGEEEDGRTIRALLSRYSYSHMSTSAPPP
- procedure_details: Inhibition of [125I]Cholecystokinin-8 (125I-CCK-8) binding to Cholecystokinin type A receptor of rat pancreatic membranes
- Assay type: cell membranes, Membrane
Note on units: pIC50 is unitless, being -log10 of a concentration expressed in mol/L.

Cc1cccc2c1N(CC(=O)N1CC3CCC(CC3)C1)C(=O)C(NC(=O)Nc1cccc(C(=O)O)c1)N=C2c1ccccc1F (stereo not given) = 6.80
Cc1cccc2c1N(CC(=O)N1CC3CCC(CC3)C1)C(=O)C(NC(=O)Nc1cccc(Cl)c1)N=C2c1ccccc1F (stereo not given) = 8.13
Cc1cccc2c1N(CC(=O)N1CC3CCC(CC3)C1)C(=O)C(NC(=O)Nc1cccc(-c3nn[nH]n3)c1)N=C2c1ccccc1F (stereo in doubt; 11) = 7.85
COc1cccc(NC(=O)NC2N=C(c3ccccc3F)c3cccc(C)c3N(CC(=O)N3CC4CCC(CC4)C3)C2=O)c1 (stereo not given) = 8.14

Pending compound:
Q: // fetch pIC50; item: CSc1cccc(NC(=O)NC2N=C(c3ccccc3F)c3cccc(C)c3N(CC(=O)N3CC4CCC(CC4)C3)C2=O)c1 (stereo not given) ; system: Cholecystokinin receptor type A (Rattus norvegicus, UniProt P30551)
Ans: 7.68
